# testTarget: LIMK2, P53671
# Sequence (P53671 143-248): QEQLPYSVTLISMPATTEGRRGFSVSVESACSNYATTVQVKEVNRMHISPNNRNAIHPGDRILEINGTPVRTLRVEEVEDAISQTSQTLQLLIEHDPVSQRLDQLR
# testSummary: holdup assay
# Parameters: key: below the threshold = too weak to quantify, mostly under pKd 3.1 to 4
# conditionParameters: plain residues with an end cap or a label only (N-terminal biotin on a linker: ado-ado)
readoutKind: pKd

Below, each entry is followed by its recorded pKd result.
> print(dat)
                                  binder        observedvalue
1            KKMPSIESDV [GRIN2A, Q12879]  below the threshold
2  LPAHHNATRL [SLC34A1, Q06495;Q06495-1]  below the threshold
3              QSLNRMEYIV [JAG1, P78504]  below the threshold
4           DDENIRTSDV [PLEKHA2, Q9HB19]  below the threshold
5              SARSRLSSNL [HCN2, Q9UL51]  below the threshold
6             YRLAQESGLV [ABCC6, O95255]  below the threshold

For this binder ( YYKRPVQEWV [MMP24, Q9Y5R2] ), measured pKd is below the threshold

The recorded pKd for QHKTQLQTLI [BPIFA2, Q96DR5] is below the threshold

Please fill in: pKd reported for LRSPRTPSEV [OR10G3, Q8NGC4] = below the threshold

Given item PKRSFIESNV [TANC1, Q9C0D5] , the value recorded as its pKd is below the threshold

Noted for LSEFKAMDSI [CTNNA1, P35221] : its pKd reads below the threshold

Lookup result for RRRESYSTTV [EVI5, O60447] ; measured pKd: below the threshold

The binder listed as FNSYSLTGYV [CLDN2, P57739] has a reported pKd of below the threshold

Value of pKd reported for the binder QSARLWETSI [ADAM22, Q9P0K1] is below the threshold
